Quick reference for pIC50 among some molecules
tested on: SK-MEL-28; assay: Antiproliferative activity against human SK-MEL-28 cells assessed as inhibition of cell proliferation incubated for 48 hrs by MTT assay; type: functional, cell-based; details: SK-MEL-28, 48 h
pIC50: −log10 of the molar value.
metric: pIC50

- CC(=O)OC[C@]12CC[C@H]3[C@@H](C[C@H]4O[C@]45[C@H](O)C=CC(=O)[C@]35C)[C@]1(O)CC[C@@]2(O)[C@@](C)(O)C1CC(C)=C(C)C(=O)O1 (stereo not given in full): < 5.30
- CC(=O)OC[C@]12CC[C@H]3[C@@H](C[C@H]4O[C@]45[C@@H](OC(C)=O)C=CC(=O)[C@]35C)[C@]1(O)CC[C@@]2(O)[C@@](C)(O)C1CC(C)=C(C)C(=O)O1 (stereo not given in full): 5.56
- CC(=O)OC[C@]12CC[C@H]3[C@@H](C[C@H]4O[C@]45CC=CC(=O)[C@]35C)[C@]1(O)CC[C@@]2(O)[C@@](C)(O)C1CC(C)=C(C)C(=O)O1 (stereo not given in full): < 5.30
- CC(=O)OC[C@]12CC[C@H]3[C@@H](CC=C4C=CCC(=O)[C@@]43C)[C@]1(O)CC[C@@]2(O)[C@@](C)(O)C1CC(C)=C(C)C(=O)O1 (stereo not given in full): < 5.30
- CC(=O)OC[C@]12CC[C@H]3[C@@H](C[C@H]4O[C@]45[C@H](OC(C)=O)C=CC(=O)[C@]35C)[C@]1(O)CC[C@@]2(O)[C@@](C)(O)C1CC(C)=C(C)C(=O)O1 (stereo not given in full): < 5.30
